target: DCN1 (DCUND1) protein PONY domain (Homo sapiens (Human), UniProt Q96GG9); assay: Off-rate measurement of reversible covalent molecules (jump dilution TR-FRET with Cy5 probe); type: binding; details: ln(2)/K; jump dilution TR-FRET
Sequence (Q96GG9 60-248): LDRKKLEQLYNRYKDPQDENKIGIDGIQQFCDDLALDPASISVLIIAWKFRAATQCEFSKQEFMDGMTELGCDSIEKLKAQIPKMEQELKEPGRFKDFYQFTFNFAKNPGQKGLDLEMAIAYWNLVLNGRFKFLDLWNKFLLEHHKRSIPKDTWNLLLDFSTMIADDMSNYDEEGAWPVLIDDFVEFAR
EXPERIMENTAL READOUT: half-life (min)
Give just the number in min; leave the unit off.

Example results:
COMPOUND	MEASURED VALUE
CCN1C(=O)[C@@H](NC(=O)c2cccc(C(F)(F)F)c2)[C@@H](C2CC2)c2c(C(=O)N3CS(=O)(=O)C[C@@H]3C#N)nn(C3CCOCC3)c21 [Compound I-560]	30.54
CCN1C(=O)[C@@H](NC(=O)c2cccc(C(F)(F)F)c2)[C@@H](C2CC2)c2c(C(=O)N3CCS(=O)(=O)C[C@H]3C#N)nn(C3CCOCC3)c21 (mixture of isomers) [Compound I-379]	54.69

Turning now to a further record.
Simply: CCN1C(=O)[C@@H](NC(=O)c2cccc(C(F)(F)F)c2)[C@@H](c2ccc(F)cc2)c2c(C(=O)N(C)[C@@H](C#N)CCN(C)C)nn(C3CCOCC3)c21 [Compound I-369] , DCN1 (DCUND1) protein PONY domain (Homo sapiens (Human), UniProt Q96GG9), half-life = 27.3

====

pIC50 values for the compounds below.
test system: Cullin-3 (CUL3) neddylation; assay: AlphaLISA assay for Cullin-3 (CUL3) neddylation in TF 1 cells; type: cell-based; details: Homo sapiens, TF-1, 3 h, 3 hours treatment
pIC50: −log10 of the molar value.

Example results:
COMPOUND	pIC50
CCN1C(=O)[C@@H](NC(=O)c2cccc(C(F)(F)F)c2)[C@@H](c2ccc(F)cc2)c2c(CN(C#N)CCCCN(C)C)nn(-c3ccccc3)c21 (single isomer, unassigned) [Compound I-249]	6.00 to 7.00
CCN1C(=O)[C@@H](NC(=O)c2cccc(C(F)(F)F)c2)[C@@H](c2ccc(F)cc2)c2c(NC(=O)[C@@H](C)Cl)nn(-c3ccccc3)c21 (mixture of isomers)	6.00 to 7.00

Turning now to a further record.
Reported pIC50 of "CCN1C(=O)[C@@H](NC(=O)c2cccc(C(F)(F)F)c2)[C@H](c2ccc(F)cc2)c2c(CNC(=O)/C=C(\C)C(=O)OC)nn(-c3ccccc3)c21" : 6.00 to 7.00

====

test system: Cullin-3 (CUL3) neddylation; assay: AlphaLISA assay for Cullin-3 (CUL3) neddylation in TF 1 cells; type: cell-based; conditions: Homo sapiens, TF-1, 3 h, 3 hours treatment
Where a name gives a salt, the structure may show the parent alone.
EXPERIMENTAL READOUT: IC50

Example results:
COMPOUND	MEASURED VALUE
CCN1C(=O)[C@H](NC(=O)c2cccc(C(F)(F)F)c2)[C@@H](c2ccc(F)cc2)c2c([C@@H](C)N(C#N)CCCN(C)C)nn(-c3ccccc3)c21 [Compound I-609, formate]	> 1000 nM
CCN(CC#N)C(=O)c1nn(-c2ccccc2)c2c1[C@@H](c1ccc(F)cc1)[C@@H](NC(=O)c1cccc(C(F)(F)F)c1)C(=O)N2CC (stereo in doubt) [Compound I-531]	100 to 1000 nM
CCN1C(=O)[C@H](NC(=O)c2cccc(C(F)(F)F)c2)[C@H](c2ccc(F)cc2)c2c(C(=O)N3CCC[C@H]3C#N)nn(-c3cccc(OCCCN4CCOCC4)c3)c21 [Compound I-544]	> 1000 nM
C=CS(=O)(=O)N[C@H](C)c1nn(-c2ccccc2)c2c1[C@H](c1ccc(F)cc1)[C@H](NC(=O)c1cccc(C(F)(F)F)c1)C(=O)N2CC (mixture of isomers) [Compound I-74]	≤ 100 nM
CCN1C(=O)[C@@H](NC(=O)c2cccc(C(F)(F)F)c2)[C@@H](c2ccc(F)cc2)c2c(C(=O)N(C)[C@H](C#N)CCN3CCN(C4COC4)CC3)nn(-c3ccccc3)c21 [Compound I-316]	≤ 100 nM

Reported IC50 of COCCN1C(=O)[C@@H](NC(=O)c2cccc(C(F)(F)F)c2)[C@@H](C2CC2)c2c(C(=O)N3[C@H](C#N)C[C@H]4C[C@H]43)nn(C3CCOCC3)c21 [Compound I-474] : 100 to 1000 nM

Reported IC50 of CCN1C(=O)[C@@H](NC(=O)c2cccc(C(F)(F)F)c2)[C@@H](c2ccc(F)cc2)c2c([C@@H](C)NC(=O)C(C)Br)nn(-c3ccccc3)c21 (stereo in doubt) [Compound I-197] : > 1000 nM

Reported IC50 of C#CC(=O)N(C)Cc1nn(-c2ccccc2)c2c1[C@H](c1ccc(F)cc1)[C@H](NC(=O)c1cccc(C(F)(F)F)c1)C(=O)N2CC (racemic) [Compound I-201] : 100 to 1000 nM

====

IC50 values for the molecules below.
biological target: DCN1 (DCUND1) protein PONY domain (Homo sapiens (Human), UniProt Q96GG9); assay: TR-FRET assay, DCN1 binding with FAM-labeled probe; conditions: read-out: TR FRET IC50 1 hr; 1 hr after treatment with compound

>>> print(df.to_string())
                                   molecule  measured_value
0  CCN1C(=O)[C@@H](NC(=O)c2cccc(C(F)(F)F)c2)[C@@H](c2ccc(F)cc2)c2c([C@@H](CF)NC#N)nn(-c3ccccc3)c21        ≤ 200 nM
1  CCN1C(=O)[C@@H](NC(=O)c2cccc(C(F)(F)F)c2)[C@@H](C2CC2)c2c(C(=O)N3CCS(=O)(=O)C[C@@H]3C#N)nn(-c3ccccc3)c21        ≤ 200 nM
2  C/C=C(\CN1CCOCC1)C(=O)NCc1nn(-c2ccccc2)c2c1[C@@H](c1ccc(F)cc1)[C@H](NC(=O)c1cccc(C(F)(F)F)c1)C(=O)N2CC (racemic)        ≤ 200 nM
3  CCN1C(=O)[C@@H](NC(=O)c2cccc(C(F)(F)F)c2)[C@@H](c2ccc(F)cc2)c2c(CN(C)C#N)nn(-c3ccccc3)c21  200 to 1000 nM

Turning now to a further record.
Reported IC50 of "CCN1C(=O)[C@@H](NC(=O)c2cccc(C(F)(F)F)c2)[C@@H](c2ccc(F)cc2)c2c(C(=O)N3[C@H](C#N)C[C@H]4C[C@H]43)nn(C3CC3)c21" : ≤ 200 nM

====

test system: Cullin-3 (CUL3) neddylation; test: AlphaLISA assay for Cullin-3 (CUL3) neddylation in TF 1 cells; type: cell-based; settings: Homo sapiens, TF-1, 3 h, 3 hours treatment
pIC50: −log10 of the molar value.
pIC50 values for the compounds below.

Example results:
In [3]: df
Out[3]:
                                   compound  measured_value
0  C=C(CN1CCC1)C(=O)NCc1nn(-c2ccccc2)c2c1[C@H](c1ccc(F)cc1)[C@H](NC(=O)c1cccc(C(F)(F)F)c1)C(=O)N2CC [Compound I-2]          ≥ 7.00
1  CCN1C(=O)[C@@H](NC(=O)c2cccc(C(F)(F)F)c2)[C@H](c2ccc(F)cc2)c2c(CNC(=O)C3=C(C(=O)OC)CC3)nn(-c3ccccc3)c21 (racemic)          ≥ 7.00

Turning now to a further record.
Reported pIC50 of C=C(C)C(=O)Nc1nn(-c2ccccc2)c2c1[C@H](c1ccc(F)cc1)[C@H](NC(=O)c1cccc(C(F)(F)F)c1)C(=O)N2CC (racemic) : 6.00 to 7.00

====

IC50 values for the molecules below.
target: DCN1 (DCUND1) protein PONY domain (Homo sapiens (Human), UniProt Q96GG9); assay: TR-FRET assay, DCN1 binding with FAM-labeled probe; conditions: TR FRET IC50 1 hr (nM), 1 hr after treatment with compound

Example results:
>>> print(df.to_string())
                                   molecule   measured_value
0  CCN1C(=O)[C@@H](CC(=O)CC2CC2)[C@@H](C2CC2)c2c(C(=O)N3[C@H](C#N)C[C@H]4C[C@H]43)nn(C3CCOCC3)c21  1000 to 3000 nM
1  CCN1C(=O)[C@@H](NC(=O)c2cccc(C(F)(F)F)c2)[C@@H](c2ccc(F)cc2)c2c(CNC(=O)C3=C(C(=O)OC)CCC3)nn(-c3ccccc3)c21   200 to 1000 nM
2  CCN1C(=O)[C@@H](NC(=O)c2cccc(C(F)(F)F)c2)[C@@H](c2ccc(F)cc2)c2c(C(=O)N3CCC[C@H]3C#N)nn(-c3cccc(OCCN4CCOCC4)c3)c21  1000 to 3000 nM
3  C=C(CC(=O)NCc1nn(-c2ccccc2)c2c1[C@@H](c1ccc(F)cc1)[C@H](NC(=O)c1cccc(C(F)(F)F)c1)C(=O)N2CC)C(=O)OC   200 to 1000 nM

Turning now to a further record.
Simply: C/C=C(\C)S(=O)(=O)NCc1nn(-c2ccccc2)c2c1[C@H](c1ccc(F)cc1)[C@H](NC(=O)c1cccc(C(F)(F)F)c1)C(=O)N2CC (racemic) , DCN1 (DCUND1) protein PONY domain (Homo sapiens (Human), UniProt Q96GG9), IC50 = 1000 to 3000 nM
